Each record here notes measured kon.
Molecular target: T1, ActRIIB homodimer Fc fusion (UniProt Q13705 20-134)
T1 construct: Comparator; also called homodimeric ActRIIB Fc fusion; homomeric ActRIIB-Fc; not shown: linker and Fc domain of the homodimer are not described
T1 sequence (looked up): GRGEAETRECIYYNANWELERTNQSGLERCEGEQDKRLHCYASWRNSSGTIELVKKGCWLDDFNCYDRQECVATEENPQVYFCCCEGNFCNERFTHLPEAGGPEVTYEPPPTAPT
Experiment: SPR (Biacore); Fc fusion captured by anti-Fc antibody, ligand injected
ATTRIBUTE_MEASURED: kon (M⁻¹ s⁻¹)

[
  {
    "BINDER": "BMP10 (ligand, UniProt O95393 317-424, looked up) NAKGNYCKRTPLYIDFKEIGWDSWIIAPPGYEAYECRGVCNYPLAEHLTPTKHAIIQALVHLKNSQKASKACCVPTKLEPISILYLDKGVVTYKFKYEGMAVSECGCR",
    "UNIT_ABBREV": "M⁻¹ s⁻¹",
    "MEASURED": "2.3e+07"
  },
  {
    "BINDER": "BMP9 (ligand, UniProt Q9UK05 320-429, looked up, also called GDF2) SAGAGSHCQKTSLRVNFEDIGWDSWIIAPKEYEAYECKGGCFFPLADDVTPTKHAIVQTLVHLKFPTKVGKACCVPTKLSPISVLYKDDMGVPTLKYHYEGMSVAECGCR",
    "UNIT_ABBREV": "M⁻¹ s⁻¹",
    "MEASURED": "1.4e+07"
  },
  {
    "BINDER": "GDF3 (ligand, UniProt Q9NR23 251-364, looked up, also called VGR2) AAIPVPKLSCKNLCHRHQLFINFRDLGWHKWIIAPKGFMANYCHGECPFSLTISLNSSNYAFMQALMHAVDPEIPQAVCIPTKLSPISMLYQDNNDNVILRHYEDMVVDECGCG",
    "UNIT_ABBREV": "M⁻¹ s⁻¹",
    "MEASURED": "1.4e+06"
  },
  {
    "BINDER": "GDF11 (ligand, UniProt O95390 299-407, looked up, also called BMP11) NLGLDCDEHSSESRCCRYPLTVDFEAFGWDWIIAPKRYKANYCSGQCEYMFMQKYPHTHLVQQANPRGSAGPCCTPTKMSPINMLYFNDKQQIIYGKIPGMVVDRCGCS",
    "UNIT_ABBREV": "M⁻¹ s⁻¹",
    "MEASURED": "5e+07"
  }
]
